Data provenance is a melting point compilation (Tetko et al.).

Metric Name: melting point (°C)

Here are 4 compounds together with their reported answers.
Compound: COc1ccc2cc1Oc1ccc(cc1)CC1c3cc(c(OC)cc3CCN1C)Oc1c(OC)c(OC)cc3c1C(C2)N(C)CC3 (configuration not stated)
melting point (°C): 218
//
Compound: COc1cc(F)c(C=O)cc1OC
melting point (°C): 99
//
Compound: CC(O)c1ccc2ccccc2c1 (configuration not stated)
melting point (°C): 74
//
Compound: O=C(O)C1(O)c2ccccc2-c2ccc(Cl)cc21 (configuration not stated)
melting point (°C): 152

(A) Cc1c(C)n(C=O)c2ccccc12
(B) CCCCC(C)(O)CC (configuration not stated)
(C) CC(C)CCOC(=O)C(=O)OCCC(C)C
Asked: Hey, quick one: sort these by melting point, largest value first please. Response format: the labels, sorted as the prompt asks.
Given back: A, C, B
(A: 89 °C, C: -9 °C, B: -83 °C)
